Measured values drawn from ChEMBL document CHEMBL4196122 for this set.

Assay: Aqueous solubility of the compound in DMSO/[…] solution at 2.5 mM
Format: physicochemical
Settings: 2500 µM
reportedProperty: solubility

Some compounds with recorded solubility:
Cc1cc(C)cc(C(=O)N[C@H](Cc2ccc(-c3cnn(C)c3)cc2)C(=O)N[C@@H](Cc2c[nH]c3ccccc23)C(=O)O)c1	Soluble
Cc1cc(C)cc(C(=O)N[C@H](Cc2ccc(-c3ccccc3)cc2)C(=O)N[C@@H](Cc2c[nH]c3ccccc23)C(=O)O)c1	Insoluble
Cc1cc(C)cc(C(=O)N[C@H](Cc2ccc(-c3c(C)noc3C)cc2)C(=O)N[C@@H](Cc2c[nH]c3ccccc23)C(=O)O)c1	Insoluble
Cc1cc(C)cc(C(=O)N[C@H](Cc2ccc(-c3cncnc3)cc2)C(=O)N[C@@H](Cc2c[nH]c3ccccc23)C(=O)O)c1	Soluble
Cc1cc(C)cc(C(=O)N[C@H](Cc2ccc(-c3c(C(=O)O)noc3C)cc2)C(=O)N[C@@H](Cc2c[nH]c3ccccc23)C(=O)O)c1	Soluble
Cc1cc(C)cc(C(=O)N[C@H](Cc2ccc(-c3ccco3)cc2)C(=O)N[C@@H](Cc2c[nH]c3ccccc23)C(=O)O)c1	Insoluble

So what's the measured solubility for this one? `Cc1cc(C)cc(C(=O)N[C@H](Cc2ccc(-c3ccc(CN(C)C)o3)cc2)C(=O)N[C@@H](Cc2c[nH]c3ccccc23)C(=O)O)c1`
Insoluble

====

For each entry below, report its T1/2 value.
Target: Hemoglobin HbA (Homo sapiens) (UniProt P69905+P68871)
Sequence (P68871 2-147 partner limits assumed): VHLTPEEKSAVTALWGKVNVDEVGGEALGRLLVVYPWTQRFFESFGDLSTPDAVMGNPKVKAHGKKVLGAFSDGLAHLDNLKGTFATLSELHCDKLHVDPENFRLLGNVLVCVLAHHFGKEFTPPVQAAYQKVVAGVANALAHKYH
Sequence (P69905 2-142 limits assumed): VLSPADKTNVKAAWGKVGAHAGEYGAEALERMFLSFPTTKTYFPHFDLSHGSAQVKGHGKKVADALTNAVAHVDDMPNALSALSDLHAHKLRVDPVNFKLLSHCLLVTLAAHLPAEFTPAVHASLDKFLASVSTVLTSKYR
Test: Binding affinity to hemoglobin (unknown origin) assessed as increase in release of carbon monooxide from carboxyhemoglobin by measuring half life of carboxyhemoglobin at 20:1 compound/Hb tetramer ratio incubated for 1 hr measured every 15 mins for 90 mins (reference value: 80 +/- 0.3 min)
Type: protein-complex assay
Numbers only, in h.

Some compounds with recorded T1/2:
Cc1cc(C)cc(C(=O)N[C@H](Cc2ccccc2)C(=O)N[C@@H](Cc2c[nH]c3ccccc23)C(=O)O)c1	1.05
Cc1cc(C)cc(C(=O)N[C@H](Cc2ccc(-c3c(C(=O)O)noc3C)cc2)C(=O)N[C@@H](Cc2c[nH]c3ccccc23)C(=O)O)c1	1.18
Cc1cc(C)cc(C(=O)N[C@H](Cc2ccc(-c3ccco3)cc2)C(=O)N[C@@H](Cc2c[nH]c3ccccc23)C(=O)O)c1	1

// input: 3 compounds below; output: T1/2 for each
1. Cc1cc(C)cc(C(=O)N[C@H](Cc2ccc(-c3ccccc3)cc2)C(=O)N[C@@H](Cc2c[nH]c3ccccc23)C(=O)O)c1
2. Cc1cc(C)cc(C(=O)N(C)[C@H](Cc2ccccc2)C(=O)N[C@@H](Cc2c[nH]c3ccccc23)C(=O)O)c1
3. Cc1cc(C)cc(C(=O)N[C@H](Cc2ccc(-c3ccc(CN(C)C)o3)cc2)C(=O)N[C@@H](Cc2c[nH]c3ccccc23)C(=O)O)c1

1: 1.07; 2: 1.08; 3: 1.12

====

Test: Aqueous solubility of the compound in DMSO/[…] solution at 2.5 mM
Assay type: physicochemical
Conditions: 2500 µM
reportedProperty: solubility

Cc1cc(C)cc(C(=O)N(C)[C@H](Cc2ccc(-c3ccccc3)cc2)C(=O)N[C@@H](Cc2c[nH]c3ccccc23)C(=O)O)c1	Insoluble
Cc1cc(C)cc(C(=O)N(C)[C@H](Cc2ccccc2)C(=O)N[C@@H](Cc2c[nH]c3ccccc23)C(=O)O)c1	Insoluble
Cc1cc(C)cc(C(=O)N[C@H](Cc2ccccc2)C(=O)N[C@@H](Cc2c[nH]c3ccccc23)C(=O)O)c1	Insoluble
